System: Rattus norvegicus
EXPERIMENT: Blood pressure lowering activity in spontaneously hypertensive rats (SHR) after 6 hours of administration (iv) of dose of 0.5 mg/kg […]
Format: functional
MEASUREMENT NAME: MBP (mmHg)
One number for each entry, in mmHg.

O=C1Nc2ccccc2C2=NCC(CN3CCN(c4ccccc4Cl)CC3)N12 (stereo unspecified) | -15
CN1C(=O)N2C(=NCC2CN2CCN(c3ccccc3Cl)CC2)c2ccccc21 (stereo unspecified) | -5.9
COc1ccccc1N1CCN(CC2CN=C3c4ccccc4N(C)C(=O)N32)CC1 (stereo unspecified) | -28.3
COc1ccccc1N1CCN(CCn2c(=O)[nH]c3ccccc3c2=O)CC1 | -31.7
CN1C(=O)N2CC(CN3CCN(c4ccccc4Cl)CC3)N=C2c2ccccc21 (stereo unspecified) | -22.5

I have this compound here, COc1ccccc1N1CCN(CC2CN3C(=O)N(C)c4ccccc4C3=N2)CC1 (stereo unspecified) , and I need its recorded MBP.
-28.4
